System name: T1, SdrF N1N2N3 (52-679), His-tagged recombinant A domain of S. epidermidis SdrF (Staphylococcus epidermidis (K28 genomic …, UniProt Q9KI14 53-678))
T1 construct: expressed in E. coli; also called SdrF A domain
T1 sequence: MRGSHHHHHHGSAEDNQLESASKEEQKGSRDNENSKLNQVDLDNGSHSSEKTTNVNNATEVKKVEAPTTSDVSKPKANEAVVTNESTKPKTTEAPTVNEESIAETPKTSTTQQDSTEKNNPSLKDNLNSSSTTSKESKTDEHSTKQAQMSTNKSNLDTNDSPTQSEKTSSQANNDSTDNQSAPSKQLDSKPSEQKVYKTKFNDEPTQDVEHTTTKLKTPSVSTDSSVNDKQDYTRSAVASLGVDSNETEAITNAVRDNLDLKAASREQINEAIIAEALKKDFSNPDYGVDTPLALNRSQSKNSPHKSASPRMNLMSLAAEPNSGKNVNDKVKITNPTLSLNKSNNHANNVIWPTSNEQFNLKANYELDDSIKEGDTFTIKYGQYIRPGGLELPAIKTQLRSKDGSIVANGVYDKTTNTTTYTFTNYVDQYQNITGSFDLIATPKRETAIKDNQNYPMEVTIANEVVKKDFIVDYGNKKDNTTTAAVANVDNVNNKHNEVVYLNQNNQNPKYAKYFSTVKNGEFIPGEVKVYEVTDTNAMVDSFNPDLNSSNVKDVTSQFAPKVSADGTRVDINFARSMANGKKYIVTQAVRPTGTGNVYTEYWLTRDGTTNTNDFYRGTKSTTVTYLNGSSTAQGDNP
Assay name: Biacore 3000, ligand capture of mAb, SdrF (N1N2N3) in flow
Please assign no whenever koff is at or above 0.0001 s⁻¹, and yes whenever it is below.

Binder	Assigned label
Humanized 110-15 (antibody, V domains shown, Humanized (veneered) variable regions with 'the appropriate light or heavy chain constant region', expressed in NSO cells; also called 110-15VL-Hu/110-15VH-Hu) VH: EVQLVESGGGLVQPGGSLKLSCAASGFAFSSYDMSWVRQTPEKRLEWVAYISSGGGITYYPDTVKGRFTISRDNSKNTLYVQMSSLRAEDTAVYYCTRHDRDSWFAYWGQGTLVTVSS VL: EIVLTQSPGTMSASPGERGTMSCSASSSVRYMYWYRQKPGQSPRLLIYDTSNLASGVPARFSGSGSGTSYSLTISRMEAEDAATYYCQQWSSYPPTFGGGTKLEMK	no
murine anti-SdrF monoclonal antibody 108-1 (antibody, V domains shown, Mouse hybridoma antibody (Balb/C, fusion F108)) VH: EVQLQQSGAELVKPGASVKLSCTASGFNIKDTYIHWVKQRPEQGLEWIGRIDPANGNTHYDSQFQGKATITADTSSNTAYLQLSSLTSDDTAVYYCTRRVGYAMDYWGQGTSVTVSS VL: DIVMTQSHKFMSTSVGDRVIITCKASQDVNTALAWYQQKPGQSPKLLIYSASYRYTGVPDRFTGSGSGTDFTFTISSVQAEDLAVYYCQQHYSTPPYTFGGGTKLEIK	no
murine anti-SdrF monoclonal antibody 108-36 (antibody, V domains shown, Mouse hybridoma antibody (fusion F108)) VH: QVTLRESGPGILQPSQTLSLTCSFSGFSLNTSGMGVTWIRQPSGKGLEWLANIYWDDDKRYNPSLKSRLTISKANSRNQVFLKITSVDTADTATYYCTRPNYLGTVYWYFDVWGAGTMVTVSS VL: QIVLTQSPAIMSASPGEKVTMTCSASSSVSYMYWYQQKPGSSPRVLIYDTSNLASGVPVRFSGSGSGTSYSLTISRMEAEDAATYYCQQWNGYPPTFGAGTKLEVK	yes
Humanized 108-36 (antibody, V domains shown, N-linked carbohydrate chain on the asparagine at position 30 of the variable heavy chain, Humanized (veneered) variable regions with 'the appropriate light or heavy chain constant region', expressed in NSO cells; also called Hu108-36) VH: QVTLRESGPGILKPSQTLSLTCTFSGFSLNTSGMGVTWIRQPSGKGLEWLANIYWDDDKRYNPSLKSRLTISKANSRNQVFLKITSVDPVDTATYYCTRPNYLGTVYWYFDVWGQGTMVTVSS VL: EIVLTQSPATMSASPGERVTMSCSASSSVSYMYWYQQKPGQSPRVLIYDTSNLASGVPSRFSGSGSGTSYSLTISSMEPEDAATYYCQQWNGYPPTFGGGTKLEVK	yes
Humanized 108-1 (antibody, V domains shown, Humanized (veneered) variable regions spliced into plasmids with 'the appropriate light or heavy chain constant region', expressed in NSO cells) VH: QVQLVQSGAEVVKPGASVKLSCKASGFNIKDTYIHWVKQRPGQGLEWIGRIDPANGNTHYDSQFQGKATITADTSTSTAYLQLSSLRSEDTAVYYCTRRVGYAMDYWGQGTTVTVSS VL: DIVMTQSQKFMSTSVGDRVTITCKASQDVNTALAWYQQKPGQSPKLLIYSASYRYTGVPSRFSGSGSGTDFTFTISSVQAEDLAVYYCQQHYSTPPYTFGGGTKLEIK	no
murine anti-SdrF monoclonal antibody 110-15 (antibody, V domains shown, Mouse hybridoma antibody (fusion F110); also called Murine 110-15; 110-15VL-Mouse/110-15VH-Mouse) VH: EVQLVESGGGLVKPGGSLKLSCAASGFAFSSYDMSWVRQTPEKRLEWVAYISSGGGITYYPDTVKGRFTISRDNAKNTLYVQMSSLKSEDTAIYYCTRHDRDSWFAYWGQGTLVTVSA VL: QIVLTQSPAIMSASPGEEGTMTCSASSSVRYMYWYRQKPGSSPRLLIYDTSNLASGVPVRFSGSGSGTSYSLTISRMEAEDAATYYCQQWSSYPPTFGGGTKLEMK	no

Hello, the source for this data is patent US20100183623A1, in case you need it.
